System: HCT116;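 further: HCT116 colorectal carcinoma cells screened at five concentrations per compound, luminescent viability scaled between DMSO wells and empty wells on each plate, curves fitted per compound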
METHOD_NOTES: AC50 cell viability (CellTiter-Glo); higher = less potent
DETAILS: 48 h
Can you tell me AC50 cell viability for the items I'm about to list?

Recorded AC50 cell viability of COc1cc(OC2CCN(C)CC2)ccc1Nc1ncc2c(n1)n(C1CCCC1)c(=O)n2C [AZ-3146] , please.
5.9 µM

Check COc1cc2c(N3CCN(C(=O)Nc4ccc(OC(C)C)cc4)CC3)ncnc2cc1OCCCN1CCCCC1 [Tandutinib] too.
18.6 µM

Check CCCCNc1ncc(-c2ccc(CN3CCOCC3)cn2)c(N[C@H]2CC[C@H](O)CC2)n1 [UNC2250] too.
3.62 µM

Check Clc1ccc(COC(Cn2ccnc2)c2ccc(Cl)cc2Cl)cc1 (stereo not drawn) [Econazole nitrate] too.
20.9 µM

Check O=C1S/C(=C\c2ccc(OCc3cccc(B(O)O)c3)cc2)C(=O)N1Cc1ccc(F)cc1 [HA-130] too.
18.6 µM

Check Nc1nc(F)nc2c1ncn2[C@@H]1O[C@H](CO)[C@@H](O)[C@@H]1O [2-Fluoroadenosine] too.
9.34 µM

Check COc1cc(N2CCN(C)CC2)ccc1Nc1ncc2c(n1)N(C)c1ccccc1C(=O)N2 [XMD8-87] too.
18.6 µM

Check c1cc(N[C@@H]2CCNC2)nc(-c2cnc3ccc(-c4cn[nH]c4)cn23)c1 too.
7.42 µM
